measurement.description: qHTS assay for small molecule activators of the heat shock response signaling pathway (AID 743210);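 on activation: HeLa cells with beta-lactamase reporter driven by heat shock elements; on the % scale 0 is the no-effect control and ±100 the full control effect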
experimental.conditions: HeLa HSE-bla reporter, beta-lactamase ratio, 5 h; series mostly up to 62.6 µM
Results filed as inconclusive are left out. Calls of active or inactive are those of the source. The call rests on the fitted dose curve; in most records, active means well fitted activation curve with a large enough effect in the signal ratio in the repeat runs, with a control signal flat (not every such curve was filed as active); inconclusive means weak or mixed curves; inactive means flat fitted curve, though single readings scatter; the % refers to the signal ratio.
Possible outcomes: T = active, F = inactive

compound	group.label
O=C(O)c1c(Cl)cccc1Cl	F
C[n+]1ccn(Cc2ccccc2)c1	F
CCCCCCCC(=O)[O-].CCCCCCCC(=O)[O-].[Zn+2]	F
CC(C)(C)c1ccc(C(=O)O)cc1	F
O=[N+]([O-])c1ccccc1Nc1ccccc1	F
CCOC(=O)O[C@]1(C(=O)OCCl)CC[C@H]2[C@@H]3CCC4=CC(=O)C=C[C@]4(C)[C@H]3[C@@H](O)C[C@@]21C	F
Oc1ccc2c(c1)-c1ccccc1C2	F
CCCCCCOC(=O)c1ccc(O)cc1	F
CCCCN1C(=O)[C@@H]([C@H](O)C2CCCCC2)NC(=O)C12CCN(Cc1ccc(Oc3ccc(C(=O)O)cc3)cc1)CC2	F
C/C=C1/C(=O)C[C@H]2[C@@H]3CCC4=CC(=O)CC[C@]4(C)[C@H]3CC[C@]12C	T
CC(NN)c1ccccc1 (stereo not given)	F
O=C(c1ccc(F)cc1)C1CCN(CCn2c(=O)[nH]c3ccccc3c2=O)CC1	F
CSc1ccc2c(c1)C(N1CCN(C)CC1)Cc1ccccc1S2 (stereo not given)	F
Oc1ccc(N=Nc2ccccc2)cc1	F
NNC(=O)c1cccc(C(=O)NN)c1	F
CC(=O)S[C@@H]1CC2=CC(=O)CC[C@]2(C)[C@H]2CC[C@@]3(C)[C@@H](CC[C@@]34CCC(=O)O4)[C@H]12	F
Cc1cccc(N(C)C(=S)Oc2ccc3c(c2)C2CCC3C2)c1 (stereo not given)	F
O=C1c2ccccc2Cc2ccccc21	F
O=c1cc(-c2ccc(O)cc2)oc2cc(O)cc(O)c12	F
CO[Si](CCCNc1ccccc1)(OC)OC	F
COc1cccc(N)c1	F
COc1c(C)c2c(c(O)c1C/C=C(\C)CCC(=O)O)C(=O)OC2	F
Cc1ccc(-n2nc(C(C)(C)C)cc2NC(=O)Nc2ccc(OCCN3CCOCC3)c3ccccc23)cc1	F
C=C(C)C(=O)OCC[N+](C)(C)C	F
COC(=O)c1cc(Cl)ccc1OC	F

---

experimental.target: Nuclear receptor subfamily 1 group I member 3 (Homo sapiens) (UniProt Q14994)
Sequence (Q14994 whole entry, looked up): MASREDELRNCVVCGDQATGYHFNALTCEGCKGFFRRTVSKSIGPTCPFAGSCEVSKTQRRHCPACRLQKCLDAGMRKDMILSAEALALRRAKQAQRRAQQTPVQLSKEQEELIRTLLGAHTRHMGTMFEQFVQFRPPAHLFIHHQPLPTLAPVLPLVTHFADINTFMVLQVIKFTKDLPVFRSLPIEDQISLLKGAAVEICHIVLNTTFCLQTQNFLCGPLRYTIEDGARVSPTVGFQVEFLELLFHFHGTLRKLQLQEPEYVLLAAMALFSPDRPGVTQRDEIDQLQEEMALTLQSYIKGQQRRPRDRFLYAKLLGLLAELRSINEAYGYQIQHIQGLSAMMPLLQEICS
measurement.description: qHTS assay to identify small molecule agonists of the constitutive androstane receptor (CAR) signaling pathway (AID 1224839); further: nearly all actives have a fitted effect of over 15% in size;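 on activation: HepG2 cells stably carrying human CAR and a CYP2B6 luciferase reporter; on the % scale 0 is the no-effect control and ±100 the full control effect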
experimental.conditions: HepG2 hCAR CYP2B6-luciferase, agonist mode, 24 h; series mostly up to 92.4 µM
Results filed as inconclusive are left out. Active and inactive are the calls of the source. Calls follow the shape of the dose curve; as a rule, active = well fitted activation curve with a large enough effect in the repeat runs; inconclusive = weak or mixed curves; inactive = no such curve, though single readings can be large or run the other way.
Labels: 1 for active, 0 for inactive

smi	group.label
O=C1c2c(O)ccc(Nc3ccc(CCO)cc3)c2C(=O)c2c([N+](=O)[O-])ccc(O)c21	1
O=c1cccccc1O	0
CN(C)C(=O)C1(N2CCCCC2)CCN(CC[C@@]2(c3ccc(Cl)c(Cl)c3)CN(C(=O)c3ccccc3)CCO2)CC1	0
O=[N+]([O-])c1cc(Cl)c(Cl)c(Cl)c1Cl	0
Fc1ccc([C@@H]2CCNC[C@H]2COc2ccc3c(c2)OCO3)cc1	0
O=c1[nH]sc2cc(Cl)ccc12	0

---

experimental.target: Cytochrome P450 1A2 (Homo sapiens)
measurement.description: Cytochrome P450 Family 1 Subfamily A Member 2 (CYP1A2) small molecule antagonists: luciferase reporter qHTS assay (AID 1671199); further: nearly all actives have a fitted effect of over 50% in size; further: potency means the concentration at half of the fitted maximal effect
experimental.conditions: P450-Glo CYP1A2 enzyme, luciferin luminescence, 1 h; series mostly up to 53 µM
Records with an inconclusive call do not appear. The source made the active and inactive calls. Calls follow the shape of the dose curve; as a rule, active = well fitted inhibition curve with a large enough effect in the repeat runs; inconclusive = weak or mixed curves; inactive = no such curve, though single readings can be large or run the other way.
recorded.endpoint: Potency

compound	reported
COc1ccc(CN2CCN(C(c3ccc(F)cc3)c3ccc(F)cc3)CC2)c(OC)c1OC	inactive
Oc1cccc(-c2c3nc(c(-c4cccc(O)c4)c4ccc([nH]4)c(-c4cccc(O)c4)c4nc(c(-c5cccc(O)c5)c5ccc2[nH]5)CC4)C=C3)c1	inactive
O=C(NOCC1CC1)c1ccc(F)c(F)c1Nc1ccc(I)cc1Cl	15.5 µM (active)
CC(C)(C)C1CCC(CC2=C(O)c3ccccc3C(=O)C2=O)CC1 (stereo not given)	inactive
C/C(=C(/OCCOc1ccc(Cl)cc1)c1ccc(Cl)cc1Cl)n1ccnc1	2.29 µM (active)
OCCN1CCN(CC/C=C2/c3ccccc3Sc3ccc(C(F)(F)F)cc32)CC1	19.5 µM (active)
c1ccc(CSCc2ccccc2)cc1	31.6 µM (active)
CC(C)c1ccc2c(c1)CC[C@H]1[C@](C)(CN)CCC[C@]21C	35.6 µM (active)
CC[C@@]1(O)C(=O)OCc2c1cc1n(c2=O)Cc2c-1nc1ccccc1c2/C=N/OC(C)(C)C	inactive
Clc1ccc(C(Cn2ccnc2)OCc2ccc(Sc3ccccc3)cc2)c(Cl)c1 (stereo not given)	15.5 µM (active)

---

measurement.description: qHTS assay for small molecule agonists of the antioxidant response element (ARE) signaling pathway - cell viability counter screen (AID 743203); further: nearly all actives have a fitted effect of over 55% in size
experimental.conditions: ARE-bla HepG2 viability, CellTiter-Glo luminescence, 16 h; series mostly up to 73.3 µM
Records with an inconclusive call do not appear. The source made the active and inactive calls. Calls come from the whole dose curve.
Outcomes: active, inactive

compound	group.label
C/C=C1/C(=O)C[C@H]2[C@@H]3CCC4=CC(=O)CC[C@]4(C)[C@H]3CC[C@]12C	inactive
CCCCCCOC(=O)c1ccc(O)cc1	inactive
O=S1(=O)CC(Cl)(Cl)C(Cl)(Cl)C1	active
Nc1ccc(N)c2ccccc12	active
O=C1CCCc2c1cc1ccc3cccc4ccc2c1c34	inactive
O=C(Oc1ccccc1)c1ccccc1C(=O)Oc1ccccc1	inactive
CCN(Cc1cccnc1)C(=O)c1cccc(Cl)c1[C@]1(C)C(=O)N(Cc2ccc(OC)cc2OC)c2ccc(Cl)cc21	active
Nc1nc2ccccc2n1Cc1ccc(F)cc1	inactive
Fc1ccc([C@@H]2CCNC[C@H]2COc2ccc3c(c2)OCO3)cc1	active
CCCCCCCCCCCC[N+](C)(C)CCCCCCCCCCCC	active
CNC(=O)c1ccccc1	inactive
CCN1/C(=C/C=C/c2sc3ccccc3[n+]2CC)Sc2ccccc21	active
O=C(O)c1c(Cl)cccc1Cl	inactive
NC(=O)N1C(=O)C(C(=O)c2cc(Cl)cs2)c2cc(F)c(Cl)cc21 (configuration not stated)	active
C/C=C(\C)C(=O)OCc1ccccc1	inactive
Oc1ccc2cc(SSc3ccc4cc(O)ccc4c3)ccc2c1	inactive
C=C(C)C(=O)OCC[N+](C)(C)C	inactive
CN(C)c1ccc(C2(c3ccc(N(C)C)cc3)OC(=O)c3cc(N(C)C)ccc32)cc1	inactive
CC(C)(C)C(=O)OCOC(=O)C1N2C(=O)CC2S(=O)(=O)C1(C)C (configuration not stated)	inactive
CN(C)c1ccc(SC#N)cc1	inactive
Oc1cccc2cc3cccc(O)c3c(O)c12	inactive
CC(C)CCCCCCCCCCCCCCC(=O)O	inactive
NNc1nc(-c2ccc(N)cc2)cs1	inactive
Cc1oc(-c2ccccc2)nc1CCC(=O)c1ccc(CC2SC(=O)NC2=O)cc1 (configuration not stated)	inactive
Cc1cc(O)c(C(C)(C)C)cc1Sc1cc(C(C)(C)C)c(O)cc1C	active
CN1CCN(CCC(=O)N2c3ccccc3Sc3ccc(C(F)(F)F)cc32)CC1	active
N#CC1(c2ccc(F)cc2)CCC(=O)CC1	inactive
CCN(CC)CCCC(C)Nc1c2ccc(Cl)cc2nc2ccc(OC)cc12 (configuration not stated)	active
CC[C@H]1O[C@]2(CC[C@@H]1C)C[C@@H]1C[C@@H](C/C=C(\C)C[C@@H](C)/C=C/C=C3\CO[C@@H]4[C@H](O)C(C)=C[C@@H](C(=O)O1)[C@]34O)O2	active
c1ccc(CSCc2ccccc2)cc1	inactive
NC(=O)NS(=O)(=O)c1ccc(N)cc1	inactive
CCCCCCC[N+](CC)(CC)CCCCc1ccc(Cl)cc1	inactive
Cc1onc(-c2ccccc2Cl)c1C(=O)N[C@@H]1C(=O)N2[C@@H]1SC(C)(C)[C@@H]2C(=O)O	inactive
CCCCCCCC(=O)[O-].CCCCCCCC(=O)[O-].[Zn+2]	inactive
CSc1ccc(/C=C2/C(C)=C(CC(=O)O)c3cc(F)ccc32)cc1	inactive
CCCCC(CC)COC(=O)c1ccccc1C(=O)O (configuration not stated)	inactive
CCCCCCCCCCCCCCCCCC[N+](C)(C)C	active
O=c1[nH]cnc2nc[nH]c12	inactive
Nc1cc(C(F)(F)F)ccc1S	inactive
COc1cc(-c2ccc(N=C=O)c(OC)c2)ccc1N=C=O	inactive
CCCCCOc1ccccc1/C(=C\SC)n1ccnc1	inactive
COC(=O)C1=C(C)NC(C)=C(C(=O)OCCc2ccc(N3CCN(C(c4ccccc4)c4ccccc4)CC3)cc2)C1c1cccc([N+](=O)[O-])c1 (configuration not stated)	inactive
O=c1c(-c2ccccc2)c1-c1ccccc1	inactive
CCCCCCCCNC(C)C(O)c1ccc(SC(C)C)cc1 (configuration not stated)	active
COc1cc(-c2nc(NC(=O)c3cc4cc(C)cc(C)c4n3CC(=O)O)sc2CCC2CCCCC2)c(OC)cc1Cl	active
Cc1ccc2oc(CN(Cc3ccccc3)C(=O)Nc3c(F)cc(F)cc3F)c(-c3ccc(Cl)cc3)c2c1	inactive
COC(=O)c1cc(Cl)ccc1OC	inactive
